# Test system: T-47D breast
# Assay Overview: NCI-60 one-dose screen, 48 h
# Experimental Parameters: 10 µM unless noted
Compounds without any hit were thinned out: in the full panel of roughly 83,000, 20% have a hit. Active and inactive are the calls of the source. Rule for the calls: active = growth percent below 10; inactive = the rest.
Assign a class; possible classes are active, inactive

O=C(O)c1cc2ccccc2cc1Nc1ccccc1
inactive
O=C(NCCNc1nccc(-c2c(-c3cccc(O)c3)nc3sccn23)n1)c1ccccc1O
inactive
CC(=O)Oc1ccc(C(OC(C)=O)OC(C)=O)cc1
inactive
COc1cc(Cn2cc3c(c2)-c2onc(CO)c2CC3)cc(OC)c1OC
inactive
COc1cc(/C=C/C(=O)c2c(C)[n+]([O-])c3ccccc3[n+]2[O-])ccc1O
inactive
Fc1ccc(/C=N/n2c(-c3cc(Cl)cc(Cl)c3Cl)nn(CNc3ccc(Cl)nn3)c2=S)cc1
inactive

Name the outcome recorded for `Nc1ncnc2c1c(C(F)(F)F)cn2[C@@H]1O[C@H](CO)[C@@H](O)[C@H]1O` in the assay.
active

====

# System: SF-295 CNS
# Assay Overview: NCI-60 one-dose screen, 48 h (100 = growth as untreated, 0 = no growth, -100 = all killed)
# Experimental Parameters: 10 µM unless noted
# Protocol: Cells are grown in 96 well plates and exposed to the test compound for 48 hours. Compounds are tested at a single concentration, which is 10^-5 M for most compounds. The reported endpoint is percent growth (GI% or GIPRCNT), where numbers from 0 - 100% represent growth inhibition, and numbers from -100% - 0 represent cell death. For example, a value of 40 represents 60% growth inhibition. A value of 0 means no net growth occurred over the course of the experiment. […]
Compounds without any hit were thinned out: in the full panel of roughly 83,000, 20% have a hit. The source made the active and inactive calls. How the source made its calls: active means growth percent below 10; inactive means the rest.
Could you please report measured growth for the items listed next?

Example cases with answers are listed next.
COc1ccc2c(c1)C(=O)/C(=C/c1cccc(OCC(=O)c3ccccc3)c1)O2
91.3% (inactive)
CS(=O)(=O)OCC(COS(C)(=O)=O)C(c1ccccc1)c1ccccc1
97.2% (inactive)
COc1ccc(C[C@H](N)C(=O)N[C@@H]2[C@@H](CO)OC(n3cnc4c(N(C)C)ncnc43)[C@@H]2O)cc1 (some centres undefined)
-43% (active)
c1ccc(CNCCN(CCNCc2ccccn2)Cc2ccc3ccccc3c2)nc1
-35.6% (active)

Consider the following items and state reported growth for each.
1. S=c1ssnc1-c1ccccn1
2. O=S(=O)(O)c1ccc(F)cc1

1. 40.4% (inactive)
2. 96.1% (inactive)

====

Record form. Attribute: growth. Fill in for each entry.
# System: HOP-92 NSCLC
# Assay Overview: NCI-60 one-dose screen, 48 h (100 = growth as untreated, 0 = no growth, -100 = all killed)
# Experimental Parameters: 10 µM unless noted
The panel holds about 83,000 compounds, 20% with a hit somewhere; the sample as a whole holds those more often.
One number for each entry, in %.

The cases that follow already have their growth on record.
O=C(C[n+]1cccc(Br)c1)c1ccc2c(c1)CCCC2
70.5
COc1cc(NC(C)CCCN2C(=O)c3ccccc3C2=O)c2nc(C)ccc2c1OC (stereo unspecified)
53.5
C=C1C(=O)O[C@H]2[C@H]1CC/C(COC(=O)c1ccc3ccccc3c1)=C\CC[C@@]1(C)O[C@@H]21
-73.3
N#Cc1c(N)nc(Cl)c(C#N)c1C(=O)c1ccccc1
74.2
O=c1c(-c2ccc3c(c2)OCO3)coc2c(CO)c(O)ccc12
-21.6
C/C(=N/O)c1ccc(NC(=O)Cn2nc(-c3ccc(Cl)cc3)nc2N)cc1
99.2
O=C(NNC(=O)c1ccc([N+](=O)[O-])cc1)c1ccc([N+](=O)[O-])cc1
106
CN1CCN(Cn2nc(-c3cc(F)c(Cl)cc3Cl)n(/N=C/c3ccc(N(C)C)cc3)c2=S)CC1
84.5
C/C(=N\N=C1/SCC(=O)N1c1ccccc1)c1ccco1
63.3
O=S(=O)(O)c1ccc(F)cc1
116

Input `COc1cc(NS(C)(=O)=O)ccc1Cc1c2ccccc2nc2ccccc12` . Output growth: 21.2

Data provenance is PubChem BioAssay (NCI).
